Hey, just so you know, these numbers are from ChEMBL document CHEMBL1155964.

Test system: Human immunodeficiency virus 1
Assay: Antiviral activity against HIV1 3B infected in human MT2 cells assessed as inhibition of viral replication by p24 antigen assay
Type: functional, organism-based
Details: Human immunodeficiency virus 1, 3B
pEC50: −log10 of the molar value.
Below is a list of entries, each paired with its recorded pEC50 value.

{"STRUCTURE_SMILES": "Cc1cc(C)c(Oc2ccc([N+](=O)[O-])c(Nc3ccc(C#N)cc3)n2)c(C)c1", "pEC50": 6.93}
{"STRUCTURE_SMILES": "Cc1cc(I)cc(C)c1Oc1ccc(N)c(Nc2ccc(C#N)cc2)n1", "pEC50": 7.10}
{"STRUCTURE_SMILES": "Cc1cc(C#N)cc(C)c1Oc1ccc([N+](=O)[O-])c(Nc2ccc(C#N)cc2)n1", "pEC50": 6.87}

* * *

Below is a list of entries, each paired with its recorded selectivity ratio value.
Assay: Selectivity index, ratio of CC50 for human TZM-bl cells to EC50 for HIV1 NL4-3
Assay type: toxicity, cell-based
Conditions: read-out: Ratio CC50/EC50

{"MOLECULE": "C#Cc1cc(C)c(Oc2ccc([N+](=O)[O-])c(Nc3ccc(C#N)cc3)n2)c(C)c1", "selectivity ratio": "> 469"}
{"MOLECULE": "Cc1cc(C)c(Nc2ccnc(Nc3ccc(C#N)cc3)n2)c(C)c1 [DAPIVIRINE]", "selectivity ratio": "> 490"}
{"MOLECULE": "Cc1cccc(C)c1Oc1ccc([N+](=O)[O-])c(Nc2ccc(C#N)cc2)n1", "selectivity ratio": "> 238"}
{"MOLECULE": "Cc1cc(C#CC(C)(C)O)cc(C)c1Oc1ccc([N+](=O)[O-])c(Nc2ccc(C#N)cc2)n1", "selectivity ratio": "> 1.09"}

* * *

Below is a list of entries, each paired with its recorded selectivity ratio value.
Experiment: Selectivity index, ratio of CC50 for human TZM-bl cells to EC50 for HIV1 RTMDR1
Format: toxicity, cell-based
Details: read-out: Ratio CC50/EC50

{"MOLECULE": "Cc1cc(C#CC(C)(C)O)cc(C)c1Oc1ccc([N+](=O)[O-])c(Nc2ccc(C#N)cc2)n1", "selectivity ratio": "> 1.78"}
{"MOLECULE": "Cc1cc(CO)cc(C)c1Oc1ccc([N+](=O)[O-])c(Nc2ccc(C#N)cc2)n1", "selectivity ratio": "> 58"}
{"MOLECULE": "Cc1cc(I)cc(C)c1Oc1ccc([N+](=O)[O-])c(Nc2ccc(C#N)cc2)n1", "selectivity ratio": "> 436"}
{"MOLECULE": "Cc1cc(C)c(Nc2ccnc(Nc3ccc(C#N)cc3)n2)c(C)c1 [DAPIVIRINE]", "selectivity ratio": "> 1020"}
{"MOLECULE": "Cc1cccc(C)c1Oc1ccc([N+](=O)[O-])c(Nc2ccc(C#N)cc2)n1", "selectivity ratio": "> 433"}
{"MOLECULE": "Cc1cc(C#N)cc(C)c1Oc1ccc([N+](=O)[O-])c(Nc2ccc(C#N)cc2)n1", "selectivity ratio": "> 2460"}
{"MOLECULE": "C#Cc1cc(C)c(Oc2ccc([N+](=O)[O-])c(Nc3ccc(C#N)cc3)n2)c(C)c1", "selectivity ratio": "> 242"}
{"MOLECULE": "Cc1cc(C)c(Oc2ccc([N+](=O)[O-])c(Nc3ccc(C#N)cc3)n2)c(C)c1", "selectivity ratio": "> 969"}
